Where do these numbers come from? They come from ChEMBL document CHEMBL1133238.

System: Neuropeptide Y receptor type 2 (Homo sapiens)
Sequence (P49146 whole entry): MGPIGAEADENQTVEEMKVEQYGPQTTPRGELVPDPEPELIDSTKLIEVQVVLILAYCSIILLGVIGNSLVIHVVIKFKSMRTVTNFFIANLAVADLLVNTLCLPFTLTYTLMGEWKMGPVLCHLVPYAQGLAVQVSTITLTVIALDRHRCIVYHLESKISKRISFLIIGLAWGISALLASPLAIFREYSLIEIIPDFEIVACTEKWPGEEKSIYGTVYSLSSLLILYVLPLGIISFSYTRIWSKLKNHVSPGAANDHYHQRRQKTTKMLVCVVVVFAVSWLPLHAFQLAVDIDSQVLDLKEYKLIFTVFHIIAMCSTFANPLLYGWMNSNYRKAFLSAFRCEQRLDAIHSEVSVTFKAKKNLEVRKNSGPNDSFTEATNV
Test Protocol: Inhibition of binding of [3H]propionyl-NPY (1 nM) to Neuropeptide Y receptor type 2 in SMS-KAN cell membranes
Metric: IC50 (µM)
Answers are plain numbers, in µM.

// solved cases for IC50 follow
[
  {
    "Compound": "N=C(N)NCCCC(NC(=O)C(c1ccccc1)c1ccc(Cl)cc1)C(=O)NCc1ccccc1 (centres undefined)",
    "System": "Neuropeptide Y receptor type 2 (Homo sapiens)",
    "Endpoint Result": 97
  },
  {
    "Compound": "N=C(N)NCCCC(NC(=O)C(c1ccccc1)c1ccc(Cl)cc1)C(=O)N[C@H]1CCc2ccccc21 (some centres undefined)",
    "System": "Neuropeptide Y receptor type 2 (Homo sapiens)",
    "Endpoint Result": 59
  },
  {
    "Compound": "CC(NC(=O)C(CCCN=C(N)N)NC(=O)C(c1ccccc1)c1ccccc1)c1ccc(O)cc1 (racemic)",
    "System": "Neuropeptide Y receptor type 2 (Homo sapiens)",
    "Endpoint Result": 575
  }
]

Batch request: IC50 per item, same order as input.
1. N=C(NCCCc1ccccc1)NCCCC(NC(=O)Cc1ccc(-c2ccccc2)cc1)C(=O)N1CCCc2cc(O)ccc2C1 (centres undefined)
2. N=C(N)NCCCC(NC(=O)C(c1ccccc1)c1ccccc1)C(=O)N[C@H](CO)c1ccccc1 (some centres undefined)
3. N=C(N)NCCCC(NC(=O)C(c1ccccc1)c1ccccc1)C(=O)N1CCCc2cc(O)ccc2C1 (centres undefined)
4. C[C@@H](NC(=O)C(CCCNC(=N)N)NC(=O)C(c1ccccc1)c1ccccc1)c1ccccc1 (some centres undefined)

Response:
1: 78; 2: 540; 3: 247; 4: 177

---

System: Neuropeptide Y receptor type 5 (Homo sapiens)
Sequence (Q15761 whole entry): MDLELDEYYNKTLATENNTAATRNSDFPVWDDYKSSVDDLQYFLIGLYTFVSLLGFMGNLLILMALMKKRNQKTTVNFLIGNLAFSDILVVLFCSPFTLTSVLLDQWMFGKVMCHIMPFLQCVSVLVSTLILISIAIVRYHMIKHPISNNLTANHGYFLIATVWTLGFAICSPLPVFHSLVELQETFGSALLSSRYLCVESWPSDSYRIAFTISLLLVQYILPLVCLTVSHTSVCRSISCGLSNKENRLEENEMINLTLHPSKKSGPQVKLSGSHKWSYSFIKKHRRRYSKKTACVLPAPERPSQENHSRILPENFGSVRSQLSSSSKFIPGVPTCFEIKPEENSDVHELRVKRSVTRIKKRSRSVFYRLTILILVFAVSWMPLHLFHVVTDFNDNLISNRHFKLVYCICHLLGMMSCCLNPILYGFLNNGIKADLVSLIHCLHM
Test Protocol: Inhibition of binding of [3H]propionyl-NPY (1 nM) to Neuropeptide Y receptor type 5 in HEC-1-B cells
Metric: pIC50
Give bare numbers, as −log10 of the molar value.

// solved cases for pIC50 follow
[
  {
    "Molecule": "N=C(NCCCc1ccccc1)NCCCC(NC(=O)Cc1ccc(-c2ccccc2)cc1)C(=O)N1CCCc2cc(O)ccc2C1 (centres undefined)",
    "System": "Neuropeptide Y receptor type 5 (Homo sapiens)",
    "pIC50": 6.11
  },
  {
    "Molecule": "N=C(N)NCCCC(NC(=O)C(c1ccccc1)c1ccc(Cl)cc1)C(=O)N[C@H]1CCc2ccccc21 (some centres undefined)",
    "System": "Neuropeptide Y receptor type 5 (Homo sapiens)",
    "pIC50": 4.92
  },
  {
    "Molecule": "N=C(N)NCCCC(NC(=O)C(c1ccccc1)c1ccccc1)C(=O)N[C@@H](C(N)=O)c1ccccc1 (some centres undefined)",
    "System": "Neuropeptide Y receptor type 5 (Homo sapiens)",
    "pIC50": 3.79
  }
]

Batch request: pIC50 per item, same order as input.
1. CC(NC(=O)C(CCCN=C(N)N)NC(=O)C(c1ccccc1)c1ccccc1)c1ccc(O)cc1 (racemic)
2. N=C(N)NCCCC(NC(=O)C(c1ccccc1)c1ccc(Cl)cc1)C(=O)NCc1ccccc1 (centres undefined)
3. C[C@@H](NC(=O)C(CCCNC(=N)N)NC(=O)C(c1ccccc1)c1ccccc1)c1ccccc1 (some centres undefined)

Response:
1. 4.12
2. 5.59
3. 4.32

---

Would you mind telling me the reported pIC50 of each entry?
System: UniProt:P25929
Sequence (P25929 whole entry): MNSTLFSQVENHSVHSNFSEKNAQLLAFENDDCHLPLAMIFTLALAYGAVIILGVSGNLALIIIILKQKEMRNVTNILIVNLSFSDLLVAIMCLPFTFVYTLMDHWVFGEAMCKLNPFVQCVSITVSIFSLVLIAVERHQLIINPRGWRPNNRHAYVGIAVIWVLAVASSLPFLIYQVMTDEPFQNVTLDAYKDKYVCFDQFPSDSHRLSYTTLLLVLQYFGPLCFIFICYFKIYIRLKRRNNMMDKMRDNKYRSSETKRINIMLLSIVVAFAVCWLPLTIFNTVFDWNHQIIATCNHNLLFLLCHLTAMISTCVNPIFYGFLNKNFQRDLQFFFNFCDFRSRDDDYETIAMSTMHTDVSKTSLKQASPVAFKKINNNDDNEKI
Test Protocol: NPY Y1-antagonistic activity in HEL cells by measuring the inhibition of porcine NPY (10 nM) stimulated increase in the intracellular [Ca2+] concentration in a FURA-assay.
Type: functional, cell-based
Condition Info: read-out: IC50
Answers are plain numbers, as −log10 of the molar value.

// solved cases for pIC50 follow
[
  {
    "Compound": "N=C(N)NCCCC(NC(=O)C(c1ccccc1)c1ccc(Cl)cc1)C(=O)N[C@H]1CCc2ccccc21 (stereo partly specified)",
    "Endpoint Result": 5.52
  },
  {
    "Compound": "N=C(N)NCCCC(NC(=O)C(c1ccccc1)c1ccccc1)C(=O)N[C@@H]1CCc2ccccc21 (stereo partly specified)",
    "Endpoint Result": 4.68
  },
  {
    "Compound": "N=C(N)NCCCC(NC(=O)C(c1ccc(Cl)cc1)c1ccc(Cl)cc1)C(=O)NCc1ccccc1 (stereo unspecified)",
    "Endpoint Result": 7.00
  },
  {
    "Compound": "N=C(N)NCCCC(NC(=O)C(c1ccccc1)(c1ccccc1)c1ccccc1)C(=O)N1CCCc2ccccc2C1 (stereo unspecified)",
    "Endpoint Result": 4.29
  },
  {
    "Compound": "N=C(N)NCCCC(NC(=O)C(c1ccccc1)c1ccccc1)C(=O)NCc1ccccc1 (stereo unspecified)",
    "Endpoint Result": 6.96
  },
  {
    "Compound": "N=C(N)NCCCC(NC(=O)C(c1ccccc1)c1ccccc1)C(=O)N[C@@H](C(N)=O)c1ccc(O)cc1 (stereo partly specified)",
    "Endpoint Result": 5.09
  },
  {
    "Compound": "N=C(N)NCCCC(NC(=O)C(c1ccccc1)c1ccc(Cl)cc1)C(=O)N1CCCc2ccccc2C1 (stereo unspecified)",
    "Endpoint Result": 5.96
  },
  {
    "Compound": "N=C(N)NCCCC(NC(=O)C(c1ccccc1)c1ccccc1)C(=O)N1CCCc2cc(O)ccc2C1 (stereo unspecified)",
    "Endpoint Result": 6.55
  }
]

Batch request: pIC50 per item, same order as input.
1. N=C(N)NCCCC(NC(=O)C(c1ccccc1)c1ccccc1)C(=O)N1CCCc2ccccc2C1 (stereo unspecified)
2. N=C(N)NCCCC(NC(=O)C(c1ccccc1)c1ccccc1)C(=O)N[C@H](C(N)=O)c1ccccc1 (stereo partly specified)
3. CC(NC(=O)C(CCCN=C(N)N)NC(=O)C(c1ccccc1)c1ccccc1)c1ccc(O)cc1 (racemic)
4. N=C(N)NCCCC(NC(=O)C(c1ccccc1)c1ccccc1)C(=O)NCCc1ccccn1 (stereo unspecified)
5. N=C(N)NCCCC(NC(=O)C(c1ccccc1)c1ccccc1)C(=O)NC1CCc2cc(O)ccc21 (racemic)
6. N=C(N)NCCCC(NC(=O)C(c1ccccc1)c1ccccc1)C(=O)N[C@@H](CO)c1ccccc1 (stereo partly specified)

Response:
5.66
5.12
7.22
4.94
6.00
4.65

Batch request: pIC50 per item, same order as input.
1. N=C(N)NCCCC(NC(=O)Cc1ccc(-c2ccccc2)cc1)C(=O)NCc1ccccc1 (stereo unspecified)
2. N=C(N)NCCCC(NC(=O)C(c1ccccc1)c1ccc(Cl)cc1)C(=O)NCc1ccccc1 (stereo unspecified)
3. N=C(N)NCCCC(NC(=O)C(c1ccc(Cl)cc1)c1ccc(Cl)cc1)C(=O)N1CCCc2ccccc2C1 (stereo unspecified)
4. N=C(N)NCCCC(NC(=O)C(c1ccccc1)c1ccccc1)C(=O)N[C@H]1CCc2ccccc21 (stereo partly specified)
5. N=C(NCCCc1ccccc1)NCCCC(NC(=O)Cc1ccc(-c2ccccc2)cc1)C(=O)N1CCCc2cc(O)ccc2C1 (stereo unspecified)
6. N=C(N)NCCCC(NC(=O)Cc1ccc(-c2ccccc2)cc1)C(=O)N1CCCc2ccccc2C1 (stereo unspecified)
7. N=C(N)NCCCC(NC(=O)C(c1ccccc1)c1ccccc1)C(=O)NCc1ccccn1 (stereo unspecified)

Response:
[4.66, 7.09, 5.96, 5.85, 4.92, 4.12, 5.43]

Batch request: pIC50 per item, same order as input.
1. C[C@@H](NC(=O)C(CCCNC(=N)N)NC(=O)C(c1ccccc1)c1ccccc1)c1ccccc1 (stereo partly specified)
2. N=C(N)NCCCC(NC(=O)C(c1ccccc1)c1ccccc1)C(=O)N[C@@H](C(N)=O)c1ccccc1 (stereo partly specified)
3. C[C@H](NC(=O)C(CCCNC(=N)N)NC(=O)C(c1ccccc1)c1ccccc1)c1ccccc1 (stereo partly specified)
4. N=C(N)NCCCC(NC(=O)C(c1ccccc1)c1ccccc1)C(=O)N[C@H](CO)c1ccccc1 (stereo partly specified)

Response:
1. 6.70
2. 5.34
3. 5.60
4. 6.05
